TEST_DESCRIPTION: Assessment of solubility: HT solubility in pION buffer, UV spectrophotometry
MEASUREMENT_PARAMETERS: pH 6.8, aqueous buffer, kinetic from dmso stock, Solubility (pH 6.8), pH 6.8
MEASURED_METRIC: log10 of solubility (log10 of the value in µg/mL)
Note: values are log10 of solubility expressed in µg/mL.

COMPOUND	log10 of solubility
Cc1ccc(OCc2ccc(C(=O)N3CCN(C)C(=O)C3)c(C)c2)c(-c2csc(N3C[C@H]4CC[C@@H](C3)[C@H]4C(=O)O)n2)c1 [Compound 286]	1.92

### Prompt Query: log10 of solubility; subject: Cc1ccc(OCc2ccc(CN3CCOC(CO)C3)cc2C#N)c(-c2csc(N3C[C@H]4CC[C@@H](C3)[C@H]4C(=O)O)n2)c1 (stereo partly shown) [Compound 227]
### Response 1.79

### Prompt Which log10 of solubility is reported for this compound? Cc1ccc(OCc2c(C)cc(C(=O)N3CCN(C)C(=O)C3)cc2C)c(-c2csc(N3C[C@H]4CC[C@@H](C3)[C@H]4C(=O)O)n2)c1 [Compound 284]
### Response 1.82

### Prompt # get_value(readout='log10 of solubility', item= Cc1ccc(OCc2ccc(CN3CCN(C)C(=O)C3)cc2C)c(-c2csc(N3C[C@H]4CC[C@@H](C3)[C@@]4(C)C(=O)O)n2)c1 [Compound 269] )
### Response 1.20

----------
TEST_DESCRIPTION: Assessment of solubility: HT solubility in pION buffer, UV spectrophotometry
MEASUREMENT_PARAMETERS: pION system solution buffer, pH 4.5, pH 4.5, aqueous buffer, kinetic from dmso stock, Solubility (pH 4.5), pH 4.5 buffer, 16-19 h incubation, 1.0% DMSO
Documented solubility across a set of compounds
Quick reminder: number only, in µg/mL, skip the unit.

Guide cases for solubility, answers given:
> print(dat)
                                   compound  recorded.measurement
1  COC1CCCN(C(=O)c2ccc(COc3ccc(C)cc3-c3csc(N4C[C@H]5CC[C@@H](C4)[C@H]5C(=O)O)n3)c(C)c2)C1 (stereo partly shown)                  0.15
2  Cc1ccc(OCc2ccc(CN(C)CC3CCCCC3)cc2C)c(-c2csc(N3CCC(C(=O)O)CC3)n2)c1                    31
3  Cc1ccc(OCc2ccc(CN3CCOCC3)cc2C)c(-c2csc(N3CC4CCC(C3)C4C(=O)O)n2)c1 (stereo not shown)                    40
4  Cc1cc(C(=O)N2CCCCC2)ccc1COc1c(-c2csc(N3CCC(C(=O)O)CC3)n2)cccc1C(F)(F)F                  0.15
5  Cc1ccc(OCc2ccc(CN3CCN(C)C(=O)C3)cc2C#N)c(-c2csc(N3C[C@H]4CC[C@@H](C3)[C@H]4C(=O)O)n2)c1                  0.42

Please find the next compound below.
### Prompt Query: solubility; subject: "Cc1ccc(OCc2ccc(CN3CCOCC3)cc2C#N)c(-c2csc(N3C[C@H]4CC[C@@H](C3)[C@H]4C(=O)O)n2)c1"
### Response 21

----------
TEST_DESCRIPTION: Assessment of solubility: HT solubility in pION buffer, UV spectrophotometry
MEASUREMENT_PARAMETERS: pH 6.8, aqueous buffer, kinetic from dmso stock, Solubility (pH 6.8), pH 6.8
MEASURED_METRIC: solubility (µg/mL)
Provide only the numeric value, understood in µg/mL.

> print(dat)
                                   compound  recorded.measurement
1  Cc1ccc(OCc2ccc(CN3CCOC(C#N)C3)cc2C#N)c(-c2csc(N3C[C@H]4CC[C@@H](C3)[C@H]4C(=O)O)n2)c1 (stereo partly shown)                     7
2  Cc1ccc(OCc2ccc(CN3CCOCC3)cc2C)c(-c2csc(N3CC[C@@H](C(=O)O)[C@H]3C)n2)c1                    37
3  Cc1ccc(OCc2ccc(C(=O)N3CCCCC3)cc2C)c(-c2csc(N3CC[C@@]4(C(=O)O)C[C@H]4C3)n2)c1                    15

### Prompt For "Cc1ccc(OCc2ccc(CN3CCOCC3)cc2C)c(-c2csc(N3CC(C4(C(=O)O)CC4)C3)n2)c1" , what is its reported solubility?
### Response 6.4

### Prompt Reported solubility, compound Cc1ccc(OCc2ccc(C(C)N3CCOCC3)cc2C)c(-c2csc(N3CC4CCC(C3)C4C(=O)O)n2)c1 (stereo not shown) : ____
### Response 1.9

### Prompt Which solubility value belongs to "Cc1ccc(OCc2ccc(CN3CCOCC3)cc2C)c(-c2csc(N3CC[C@]4(C(=O)O)C[C@@H]4C3)n2)c1" ?
### Response 4.8

### Prompt Returns the measured solubility for the input compound. Input: Cc1ccc(OCc2ccc(CN3CCS(=O)(=O)CC3)cc2C)c(-c2csc(N3CCCC(C)(C(=O)O)CC3)n2)c1 (stereo not shown)
### Response 0.95

Data provenance is patent US8815857B2.
